System: MDA-MB-435
Assay explanation: NCI tumour cell line growth inhibition, 48 h
Parameter: TGI (µM)
Just the number in µM, nothing appended.

# Compound, Units symbol, Value
records = [
    ("O=c1c2ccccc2[nH]c2c(Cl)cc(Cl)c(N3CCCCC3)c12", "µM", 55.8),
    ("COC1=CC(=O)C2=C(C[C@@]3(C)C(=C2)C(CO)=CC[C@H]3O)C1=O", "µM", 41.2),
]

// "c1ccc([P+](CCCCCC[P+](c2ccccc2)(c2ccccc2)c2ccccc2)(c2ccccc2)c2ccccc2)cc1" : TGI value = 72.9

// S=C=NC1CCC(c2cc3ccccc3s2)(N2CCCCC2)CC1 (configuration not stated) : TGI value = 3.19

// Cc1ccc(N2C(N)=C(C#N)C(C#N)(C#N)C2c2ccccc2)cc1 (configuration not stated) : TGI value = 14.1

// "COc1cnc2c(c1)C(=O)c1c-2n(CCCN2CCNCC2)c(=O)c2cc([N+](=O)[O-])ccc12" : TGI value = 2.68

// "c1ccc([P+](c2ccccc2)(c2ccccc2)C2c3ccccc3-c3ccccc32)cc1" : TGI value = 3.18

// "COc1cc(/C=C/C(=O)c2c(C)nc3ccccc3c2C)ccc1OCCCN1CCN(C(=O)c2ccco2)CC1" : TGI value = 19.8

// "CC[C@@]1(CCC(=O)NCCc2c[nH]c3ccccc23)CCC(=O)N2CCc3c([nH]c4ccccc34)[C@H]21" : TGI value = 47.1

// "CN(C)c1ccc(N=C2C=CC(=O)c3ccccc32)cc1" : TGI value = 3.58

// "CC(C)[C@@H](C)[C@@]1(C)C[C@@H]1[C@@H](C)[C@H]1CC[C@@H]([C@@H]2CC=C3C[C@@H](O)CC[C@]3(C)C2=O)[C@]1(C)CCO" : TGI value = 24.3

// "CSc1ccc(C(=O)/C=C/c2ccccc2Cl)cc1" : TGI value = 30.2

// "Cc1c(F)c(NC(=O)CN(C)C)c2c(=O)cc(-c3ccc(NC(=O)CN(C)C)c(F)c3)oc2c1F" : TGI value = 26.5

// "O=C(NCCCN1CCN(CCCNC(=O)Nc2cccc3ccccc23)CC1)Nc1cccc2ccccc12" : TGI value = 31.4

// "COc1ccc(/C(=N\Nc2ccccn2)c2ccccn2)cc1" : TGI value = 22.3

###

# maps each entry to its GI50
Test system: DU-145 prostate
Assay explanation: NCI tumour cell line growth inhibition, 48 h

// "Cc1cc(=O)oc2cc(OC/C=C3\CCC(=O)O3)ccc12" : GI50 value = 5.31 µM

// "O=[N+]([O-])c1ccc(Sc2ccncn2)c([N+](=O)[O-])c1" : GI50 value = 2.14 µM

###

Test system: NCI-H23 lung
Assay explanation: NCI tumour cell line growth inhibition, 48 h
# maps each entry to its TGI

Take a look at these entries with their results.
# Cpd smiles, TGI
records = [
    ("O=C1c2ccccc2C(=O)N1CC(CN1C(=O)c2ccccc2C1=O)(C(=O)OCc1ccccc1)C(=O)OCc1ccccc1", "> 100 µM"),
    ("CCCCc1ccc(C#CC#Cc2ccc(CCCC)s2)s1", "> 100 µM"),
]

Okay, now this compound:
// "O=[N+]([O-])c1cc2c([N+](=O)[O-])cccc2o1" : TGI value = 37.6 µM

###

Test system: SK-MEL-28 melanoma
Assay explanation: NCI tumour cell line growth inhibition, 48 h
Parameter: TGI

Take a look at these entries with their results.
# Molecule, Parameter, Value
records = [
    ("Cc1ccc(S(=O)(=O)N2CCc3ccc(O)c4c3C2Cc2ccc3c(c2-4)OCO3)cc1 (stereo unspecified)", "TGI", "18.6 µM"),
    ("Nc1c(F)cc(-c2nc3cc(F)ccc3[se]2)cc1Br", "TGI", "> 100 µM"),
    ("C=CCN(N=O)C(=O)NCCCCC(NC(C)=O)C(=O)NCc1ccccc1 (stereo unspecified)", "TGI", "> 100 µM"),
    ("Cc1nnc(Sc2nc(C#N)c(C#N)nc2Sc2nnc(C)s2)s1", "TGI", "47 µM"),
]

// "COc1cc2c[n+](C)c3c4cc(OC)c(OC)cc4ccc3c2cc1OC" : TGI value = > 100 µM

// "COc1ccc(OC)c(/C=C/c2nc(SCc3ccccc3)n(-c3ccc(Cl)cc3)n2)c1" : TGI value = > 100 µM

// "N#Cc1c(O)c2ccccc2[nH]c1=O" : TGI value = > 100 µM

###

# maps each entry to its TGI
Tested on: NCI-H460 lung
Assay explanation: NCI tumour cell line growth inhibition, 48 h

Take a look at these entries with their results.
# Compound, TGI
data = [
    ("COc1cccc(NC(=O)C(=O)C2C=CCS2(=O)=O)c1 (stereo not given)", "> 100 µM"),
    ("COc1cc2c[n+](C)c3c4cc(OC)c(OC)cc4ccc3c2cc1OC", "> 100 µM"),
    ("C[C@@H](Oc1cc(-n2cnc3ccc(OC[C@@H](O)CO)cc32)sc1C(N)=O)c1ccccc1Cl", "> 25 µM"),
]

// "CCOC(=O)C1(Br)S(=O)(=O)OCCOS1(=O)=O" : TGI value = > 100 µM

// "CN(C)c1ccc2nc(CC(O)(C(F)(F)F)C(F)(F)F)ccc2c1" : TGI value = > 10 µM

// "O=C1C=CC2(C=C1)C[C@H](NC(=O)OCc1ccccc1)C(=O)O2" : TGI value = 59.9 µM

###

Tested on: 786-0 renal
Assay explanation: NCI tumour cell line growth inhibition, 48 h
# maps each entry to its TGI
Just the number in µM, nothing appended.

# Molecule, TGI (µM)
measured = [
    ("CCOC1CC2OC(=O)C1C=C2C(=O)OC (stereo unspecified)", 75.9),
    ("O=C(NCCCN1CCN(CCCNC(=O)Nc2cccc3ccccc23)CC1)Nc1cccc2ccccc12", 34.1),
]

Okay, now this molecule:
// "CC(C)[C@@H](C)[C@@]1(C)C[C@@H]1[C@@H](C)[C@H]1CC[C@@H]([C@@H]2CC=C3C[C@@H](O)CC[C@]3(C)C2=O)[C@]1(C)CCO" : TGI value = 17.2

###

Test system: MALME-3M melanoma
Assay explanation: NCI tumour cell line growth inhibition, 48 h
Parameter: TGI (µM)
Just the number in µM, nothing appended.

# Cpd smiles, Parameter, Units symbol, Value
measured = [
    ("C#Cc1cccc(NC(=O)c2ccc(NC(=O)CCl)cc2)c1", "TGI", "µM", 53.3),
]

Okay, now this molecule:
// "COC(=O)C1=C(CCC[C@H](C)O[Si](C)(C)C(C)(C)C)NC(=O)N2[C@@H](CCO)CC[C@H]12" : TGI value = 25.9

###

System: HT29 colon
Assay explanation: NCI tumour cell line growth inhibition, 48 h
# maps each entry to its GI50

# Compound, Value
data = [
    ("Nc1ncnc2c1ccn2[C@@H]1O[C@H]([C@H](O)c2ccc(Cl)c(F)c2)[C@@H](O)[C@H]1O", "36 µM"),
    ("COCCn1cc(-c2csc(-c3c[nH]c4ccc(Br)cc34)n2)c2cccnc21", "3.36 µM"),
    ("[CH3][Sn]([CH3])([CH3])[O][N+](=O)[O-]", "5.8 µM"),
    ("CN(C)CCOC(=O)Nc1nc2ccc(Sc3ccccc3)cc2[nH]1", "3.57 µM"),
    ("Cn1c2ccccc2c2c(=O)n(CCCC(=O)OC(=NC3CCCCC3)NC3CCCCC3)c3c(-c4ccccc4)nnn3c21", "> 100 µM"),
    ("CC1=C([Se]CC(OC(=O)[C@@H](CO)NC(=O)OC(C)(C)C)C(=O)NCCCCCC(=O)OCc2ccccc2)C(=O)c2ccccc2C1=O (some centres not stated)", "2.15 µM"),
]

// "Cc1cc(=O)oc2cc(OC/C=C3\CCC(=O)O3)ccc12" : GI50 value = 9.7 µM

###

Tested on: MCF7 breast
Assay explanation: NCI tumour cell line growth inhibition, 48 h
Parameter: GI50

# Molecule, GI50
measured = [
    ("COc1ccc2c(c1)C(=O)c1c-2c(Nc2cccc(C(C)=O)c2)nc2ccccc12", "24000 nM"),
    ("C=CCc1c(O)c(C(=O)/C=C/c2ccccc2)c(OC)c2ccoc12", "2730 nM"),
    ("CN1CCN(Cc2ccc(NC(=O)c3cncc(C#Cc4cnc(N)c5cnccc45)c3)cc2C(F)(F)F)CC1", "921 nM"),
    ("COc1ccc(N(C)c2nc(Cl)nc3cnn(C)c23)cc1", "< 10 nM"),
    ("Cc1cc(Cl)cc(Cc2cc(Cl)cc(C)c2O)c1O", "2470 nM"),
    ("C#Cc1cccc(NC(=O)c2ccc(NC(=O)CCl)cc2)c1", "22600 nM"),
    ("[CH3][Sn]([CH3])([CH3])[O][N+](=O)[O-]", "2870 nM"),
    ("CC1=C([Se]CC(OC(=O)[C@@H](CO)NC(=O)OC(C)(C)C)C(=O)NCCCCCC(=O)OCc2ccccc2)C(=O)c2ccccc2C1=O (some centres undefined)", "1610 nM"),
]

Okay, now this molecule:
// "COCc1c(-c2ccc(NC(=O)Nc3cc(C(F)(F)F)ccc3F)c(F)c2)c2c(N)ncnn2c1CN1CCOCC1" : GI50 value = 2200 nM

Origin of values: PubChem BioAssay (NCI)
